compounds and their reported pIC50
# assayed_system: Tubulin (Bos taurus, UniProt Q6B856+Q862L2+Q862F3)
# test: Inhibition of bovine brain tubulin polymerization incubated for 20 mins by spectrophotometry

[
  {
    "structure_smiles_string": "Cc1ccc(/C=C/C(=O)Nc2cc(-c3ccc(Br)cc3)[nH]n2)cc1",
    "assayed_system": "Tubulin (Bos taurus, UniProt Q6B856+Q862L2+Q862F3)",
    "pIC50": 5.56
  },
  {
    "structure_smiles_string": "O=C(/C=C/c1ccccc1)Nc1cc(-c2ccccc2)[nH]n1",
    "assayed_system": "Tubulin (Bos taurus, UniProt Q6B856+Q862L2+Q862F3)",
    "pIC50": 5.547
  },
  {
    "structure_smiles_string": "O=C(/C=C/c1ccc(F)cc1)Nc1cc(-c2ccccc2)[nH]n1",
    "assayed_system": "Tubulin (Bos taurus, UniProt Q6B856+Q862L2+Q862F3)",
    "pIC50": 5.733
  }
]
